Can you tell me fold change of affinity for the items I'm about to list?
- Target Of Assay: T1, Human CD3eg linker (human)
- T1 construct: Single-chain construct; also called recombinant human CD3
- T1 chain: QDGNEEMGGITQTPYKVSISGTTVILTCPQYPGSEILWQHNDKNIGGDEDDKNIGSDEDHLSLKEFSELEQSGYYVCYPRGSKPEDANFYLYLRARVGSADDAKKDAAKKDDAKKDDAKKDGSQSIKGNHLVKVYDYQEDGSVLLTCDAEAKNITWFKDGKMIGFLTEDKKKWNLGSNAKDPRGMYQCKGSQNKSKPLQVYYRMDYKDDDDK
- Experiment Notes: SPR; fold vs parent H183/L072
Numbers only here, please. The scale is fold.

Sample H183/L072 VL T31H (antibody, name in Kabat numbering, V domains shown) VH: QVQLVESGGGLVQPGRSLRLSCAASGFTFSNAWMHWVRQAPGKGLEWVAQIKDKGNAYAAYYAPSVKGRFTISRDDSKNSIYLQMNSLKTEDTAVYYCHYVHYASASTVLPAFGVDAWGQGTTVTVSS VL: DIVMTQSPLSLPVTPGEPASISCQASQELVHMNRNHYLHWYQQKPGQAPRLLIYKVSNRFPGVPDRFSGSGSGTDFTLKISRVEAEDVGVYYCAQGTSVPFTFGQGTKLEIK — what was its fold change of affinity?
0.1

Then this binder: H183/L072 VL N28T (antibody, name in Kabat numbering, V domains shown) VH: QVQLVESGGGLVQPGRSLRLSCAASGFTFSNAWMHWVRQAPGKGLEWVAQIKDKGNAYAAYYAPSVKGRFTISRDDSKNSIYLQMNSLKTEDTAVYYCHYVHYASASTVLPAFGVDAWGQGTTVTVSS VL: DIVMTQSPLSLPVTPGEPASISCQASQELVHMTRNTYLHWYQQKPGQAPRLLIYKVSNRFPGVPDRFSGSGSGTDFTLKISRVEAEDVGVYYCAQGTSVPFTFGQGTKLEIK
0

Then this binder: H183/L072 VL H34A (antibody, name in Kabat numbering, V domains shown) VH: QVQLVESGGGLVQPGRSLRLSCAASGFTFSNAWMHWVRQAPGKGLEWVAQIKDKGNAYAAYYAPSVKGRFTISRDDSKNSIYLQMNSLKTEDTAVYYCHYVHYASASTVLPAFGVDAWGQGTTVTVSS VL: DIVMTQSPLSLPVTPGEPASISCQASQELVHMNRNTYLAWYQQKPGQAPRLLIYKVSNRFPGVPDRFSGSGSGTDFTLKISRVEAEDVGVYYCAQGTSVPFTFGQGTKLEIK
0.6

Then this binder: H183/L072 VL Y32D (antibody, name in Kabat numbering, V domains shown) VH: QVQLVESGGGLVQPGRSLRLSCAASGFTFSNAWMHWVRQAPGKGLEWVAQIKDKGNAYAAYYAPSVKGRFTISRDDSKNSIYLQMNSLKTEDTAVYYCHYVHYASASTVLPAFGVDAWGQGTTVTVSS VL: DIVMTQSPLSLPVTPGEPASISCQASQELVHMNRNTDLHWYQQKPGQAPRLLIYKVSNRFPGVPDRFSGSGSGTDFTLKISRVEAEDVGVYYCAQGTSVPFTFGQGTKLEIK
0

Then this binder: H183/L072 VL V94Q (antibody, name in Kabat numbering, V domains shown) VH: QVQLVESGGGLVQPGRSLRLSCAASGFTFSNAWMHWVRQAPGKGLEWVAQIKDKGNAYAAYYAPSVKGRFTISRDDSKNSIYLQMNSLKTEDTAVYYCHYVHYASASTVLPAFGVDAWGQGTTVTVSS VL: DIVMTQSPLSLPVTPGEPASISCQASQELVHMNRNTYLHWYQQKPGQAPRLLIYKVSNRFPGVPDRFSGSGSGTDFTLKISRVEAEDVGVYYCAQGTSQPFTFGQGTKLEIK
1
